Recorded IC90, one value per entry.
# Test system: MG-63 (osteosarcoma) cells
# measurement.protocol: MTT cell growth inhibition, solid tumor cells
# Type: cell-based
# run.conditions: Homo sapiens; MG-63, 72 h, MTT; read-out: IC90
Field: numeric (µg/mL). Do not append units.

Please review the following examples before continuing.
>>> reported_value("COc1ccc2cc1Oc1ccc(cc1)C[C@H]1c3cc(c(OC)cc3CCN1C)Oc1c(OCc3cccc(F)c3F)c(OC)cc3c1[C@H](C2)N(C)CC3")
3.5
>>> reported_value("COc1ccc2cc1Oc1ccc(cc1)C[C@H]1c3cc(c(OC)cc3CCN1C)Oc1c(OCC(O)CN3CCSCC3)c(OC)cc3c1[C@H](C2)N(C)CC3 (stereo partly drawn)")
3.6
>>> reported_value("COc1ccc2cc1Oc1ccc(cc1)C[C@H]1c3cc(c(OC)cc3CCN1C)Oc1c(OCC(O)CN3CCN(C#N)CC3)c(OC)cc3c1[C@H](C2)N(C)CC3 (stereo partly drawn)")
2.4
>>> reported_value("COc1ccc2cc1Oc1ccc(cc1)C[C@H]1c3cc(c(OC)cc3CCN1C)Oc1c(OCC3CC3)c(OC)cc3c1[C@H](C2)N(C)CC3")
2.5
>>> reported_value("COc1ccc2cc1Oc1ccc(cc1)C[C@H]1c3cc(c(OC)cc3CCN1C)Oc1c(OCc3ccc(C(F)(F)F)cc3)c(OC)cc3c1[C@H](C2)N(C)CC3")
5.5

Lookup: Hello, I am looking for reported IC90 with MG-63 (osteosarcoma) cells for COc1cc(OC)cc(C(=O)Oc2c(OC)cc3c4c2Oc2cc5c(cc2OC)CCN(C)[C@H]5Cc2ccc(cc2)Oc2cc(ccc2OC)C[C@@H]4N(C)CC3)c1 . Could you help?
Found: 4.37

Lookup: Same again, this time with COc1ccc2cc1Oc1ccc(cc1)C[C@H]1c3cc(c(OC)cc3CCN1C)Oc1c(OCC(O)CN3CCCCC3)c(OC)cc3c1[C@H](C2)N(C)CC3 (stereo partly drawn)
Found: 1.3

Lookup: Repeat with COc1ccc2cc1Oc1ccc(cc1)C[C@H]1c3cc(c(OC)cc3CCN1C)Oc1c(OCC(O)CNCC3CC3)c(OC)cc3c1[C@H](C2)N(C)CC3 (stereo partly drawn)
Found: 1.7

Lookup: And COc1ccc2cc1Oc1ccc(cc1)C[C@H]1c3cc(c(OC)cc3CCN1C)Oc1c(OC3CCCC3)c(OC)cc3c1[C@H](C2)N(C)CC3 ?
Found: 3.6

Lookup: Okay, and C=CCN(C)CC(O)COc1c(OC)cc2c3c1Oc1cc4c(cc1OC)CCN(C)[C@H]4Cc1ccc(cc1)Oc1cc(ccc1OC)C[C@@H]3N(C)CC2 (stereo partly drawn) ?
Found: 1.99

###

# Test system: K562/ADR (K562adr, drug-resistant chronic myeloid leukemia) cells
# measurement.protocol: MTT cell growth inhibition, leukemia cells
# Assay type: cell-based
# run.conditions: Homo sapiens; K562/ADR, 72 h, MTT; read-out: IC50
measurement.name: IC50
I'd appreciate it if you included the unit after the number.

Some solved entries appear below for comparison.
>>> reported_value("COc1ccc2cc1Oc1ccc(cc1)C[C@H]1c3cc(c(OC)cc3CCN1C)Oc1c(OCC(O)CN3CCSCC3)c(OC)cc3c1[C@H](C2)N(C)CC3 (stereo partly drawn)")
"0.19 µg/mL"
>>> reported_value("COc1ccc2cc1Oc1ccc(cc1)C[C@H]1c3cc(c(OC)cc3CCN1C)Oc1c(OCC(O)CN3CCCCC3)c(OC)cc3c1[C@H](C2)N(C)CC3 (stereo partly drawn)")
"0.05 µg/mL"
>>> reported_value("COc1ccc2cc1Oc1ccc(cc1)C[C@H]1c3cc(c(OC)cc3CCN1C)Oc1c(OCC(O)CNCC3CC3)c(OC)cc3c1[C@H](C2)N(C)CC3 (stereo partly drawn)")
"0.6 µg/mL"

Lookup: I'd like to know its IC50. The compound in question is COc1ccc2cc1Oc1ccc(cc1)C[C@H]1c3cc(c(OC)cc3CCN1C)Oc1c(OCc3cccc(F)c3F)c(OC)cc3c1[C@H](C2)N(C)CC3
Found: 0.38 µg/mL

Lookup: Another compound to check: COc1ccc2cc1Oc1ccc(cc1)C[C@H]1c3cc(c(OC)cc3CCN1C)Oc1c(OC(=O)c3c(F)cccc3Cl)c(OC)cc3c1[C@H](C2)N(C)CC3
Found: 0.26 µg/mL

Lookup: Same question for C=CCN(C)CC(O)COc1c(OC)cc2c3c1Oc1cc4c(cc1OC)CCN(C)[C@H]4Cc1ccc(cc1)Oc1cc(ccc1OC)C[C@@H]3N(C)CC2 (stereo partly drawn) please.
Found: 0.16 µg/mL

###

List of IC90 values.
# System: RPMI 8226 (multiple myeloma) cells
# measurement.protocol: MTT cell growth inhibition, multiple myeloma cells
# Assay type: cell-based, human
# run.conditions: Homo sapiens; RPMI 8226, 72 h, MTT; read-out: IC90
# Description: Myeloma cell lines: RPMI8226 (multiple myeloma), purchased from Fuxiang Bio-tech Co. Ltd., Shanghai, China. 6000 well-growing cells were obtained and inoculated into wells of a 96-well cell culture plate. The culture medium was a RPMI-1640 cell culture medium containing 10% fetal bovine serum. […] Then the viable cell concentration was determined by the MTT method.
Your answer is read as µg/mL, so omit the unit and give the number.

>>> reported_value("COc1ccc2cc1Oc1ccc(cc1)C[C@H]1c3cc(c(OC)cc3CCN1C)Oc1c(OCC(O)CN3CCCC(C)C3)c(OC)cc3c1[C@H](C2)N(C)CC3 (stereo partly drawn)")
0.25
>>> reported_value("COc1ccc2cc1Oc1ccc(cc1)C[C@H]1c3cc(c(OC)cc3CCN1C)Oc1c(OC3CCCC3)c(OC)cc3c1[C@H](C2)N(C)CC3")
0.5
>>> reported_value("COc1ccc2cc1Oc1ccc(cc1)C[C@H]1c3cc(c(OC)cc3CCN1C)Oc1c(OCc3ccc(C(F)(F)F)cc3)c(OC)cc3c1[C@H](C2)N(C)CC3")
0.77
>>> reported_value("COc1ccc2cc1Oc1ccc(cc1)C[C@H]1c3cc(c(OC)cc3CCN1C)Oc1c(OC(=O)c3ccc(N(C)C)cc3)c(OC)cc3c1[C@H](C2)N(C)CC3")
0.25
>>> reported_value("C=C(C)COc1c(OC)cc2c3c1Oc1cc4c(cc1OC)CCN(C)[C@H]4Cc1ccc(cc1)Oc1cc(ccc1OC)C[C@@H]3N(C)CC2")
0.46

Lookup: // returns reported IC90 for input C=CCN(C)CC(O)COc1c(OC)cc2c3c1Oc1cc4c(cc1OC)CCN(C)[C@H]4Cc1ccc(cc1)Oc1cc(ccc1OC)C[C@@H]3N(C)CC2 (stereo partly drawn)
Found: 0.5

###

# Tested on: H9 (acute lymphoblastic leukemia) cells
# measurement.protocol: MTT cell growth inhibition, leukemia cells
# Assay type: cell-based, human
# run.conditions: Homo sapiens; H9, 72 h, MTT; read-out: IC90
IC90 vs 3 µg/mL: less than gives rule met; not less than gives rule not met.

>>> class_label("COc1ccc2cc1Oc1ccc(cc1)C[C@H]1c3cc(c(OC)cc3CCN1C)Oc1c(OCc3ccc(C(F)(F)F)cc3)c(OC)cc3c1[C@H](C2)N(C)CC3")
"rule not met"
>>> class_label("COc1ccc2cc1Oc1ccc(cc1)C[C@H]1c3cc(c(OC)cc3CCN1C)Oc1c(OCC(O)CN3CCN(C#N)CC3)c(OC)cc3c1[C@H](C2)N(C)CC3 (stereo partly drawn)")
"rule met"
>>> class_label("COc1ccc2cc1Oc1ccc(cc1)C[C@H]1c3cc(c(OC)cc3CCN1C)Oc1c(OC(=O)c3c(F)cccc3Cl)c(OC)cc3c1[C@H](C2)N(C)CC3")
"rule not met"

Lookup: Threshold test, IC90 < 3 µg/mL: COc1ccc2cc1Oc1ccc(cc1)C[C@H]1c3cc(c(OC)cc3CCN1C)Oc1c(OCC3CC3)c(OC)cc3c1[C@H](C2)N(C)CC3
Found: rule not met

Lookup: Another: C=CCOc1c(OC)cc2c3c1Oc1cc4c(cc1OC)CCN(C)[C@H]4Cc1ccc(cc1)Oc1cc(ccc1OC)C[C@@H]3N(C)CC2
Found: rule not met

Lookup: Another compound to look at: COc1cc(OC)cc(C(=O)Oc2c(OC)cc3c4c2Oc2cc5c(cc2OC)CCN(C)[C@H]5Cc2ccc(cc2)Oc2cc(ccc2OC)C[C@@H]4N(C)CC3)c1
Found: rule met

###

# Test system: Becap-37 (human breast cancer) cells
# measurement.protocol: MTT cell growth inhibition, solid tumor cells
# Format: cell-based
# run.conditions: Homo sapiens; Becap-37, 72 h, MTT; read-out: IC90
# strict inequality: IC90 < 4 µg/mL yields 1, everything else yields 0

Previously resolved entries follow.
>>> class_label("C=C(C)COc1c(OC)cc2c3c1Oc1cc4c(cc1OC)CCN(C)[C@H]4Cc1ccc(cc1)Oc1cc(ccc1OC)C[C@@H]3N(C)CC2")
1
>>> class_label("C=CCN(C)CC(O)COc1c(OC)cc2c3c1Oc1cc4c(cc1OC)CCN(C)[C@H]4Cc1ccc(cc1)Oc1cc(ccc1OC)C[C@@H]3N(C)CC2 (stereo partly drawn)")
0
>>> class_label("COc1cc(OC)cc(C(=O)Oc2c(OC)cc3c4c2Oc2cc5c(cc2OC)CCN(C)[C@H]5Cc2ccc(cc2)Oc2cc(ccc2OC)C[C@@H]4N(C)CC3)c1")
1
>>> class_label("COc1ccc2cc1Oc1ccc(cc1)C[C@H]1c3cc(c(OC)cc3CCN1C)Oc1c(OCC(O)CNCC3CC3)c(OC)cc3c1[C@H](C2)N(C)CC3 (stereo partly drawn)")
1
>>> class_label("COc1ccc2cc1Oc1ccc(cc1)C[C@H]1c3cc(c(OC)cc3CCN1C)Oc1c(OCc3cccc(F)c3F)c(OC)cc3c1[C@H](C2)N(C)CC3")
0

Proceed to the following item.
Lookup: In the record for COc1ccc2cc1Oc1ccc(cc1)C[C@H]1c3cc(c(OC)cc3CCN1C)Oc1c(OC(=O)c3c(F)cccc3Cl)c(OC)cc3c1[C@H](C2)N(C)CC3 , is IC90 less than 4 µg/mL?
Found: 1

Sourced from patent US9328122B2
